protocol_summary: Bioavailability and pharmacokinetics in normal rats
Type: in vivo, rat
run_parameters: female, CD, iv; rat plasma; I.V.; 10 mg/kg
Structures can show the parent of a compound that is named as a salt.
measured_attribute: clearance (mL/min/kg)

> print(dat)
                                   compound  output.unit  endpoint.value
1  CC(C)c1ccc2oc3nc(N)c(C(=O)O)cc3c(=O)c2c1 [Amlexanox (salt), sodium salt]    mL/min/kg              50

* * *

protocol_summary: Bioavailability and pharmacokinetics in normal rats
Type: in vivo, rat
run_parameters: female, CD, rat, plasma, po, 100 mg/kg, rat plasma, acid suspended in 1% methyl cellulose
measured_attribute: Cmax (ng/mL)

> print(dat)
                                   molecule  endpoint.value
1  CC(C)c1ccc2oc3nc(N)c(C(=O)O)cc3c(=O)c2c1 [Amlexanox]            1170

* * *

protocol_summary: Bioavailability and pharmacokinetics in normal rats
Assay type: in vivo, rat
run_parameters: female, CD, rat, plasma, po, 200 mg/kg, rat plasma, salt solution
Counter-ions that a name gives are not always drawn.
measured_attribute: MRT (h)

> print(dat)
                                   compound  output.unit  endpoint.value
1  CC(C)c1ccc2oc3nc(N)c(C(=O)O)cc3c(=O)c2c1 [Amlexanox (salt), sodium salt]            h            1.77

* * *

protocol_summary: Bioavailability and pharmacokinetics in normal rats
Assay type: in vivo, rat
run_parameters: female, CD, iv; rat plasma; I.V.; 100 mg/kg; read-out: Vss
Structures can show the parent of a compound that is named as a salt.
measured_attribute: Vd (L/kg)

> print(dat)
                                   molecule  endpoint.value
1  CC(C)c1ccc2oc3nc(N)c(C(=O)O)cc3c(=O)c2c1 [Amlexanox (salt), sodium salt]            0.14

* * *

protocol_summary: Bioavailability and pharmacokinetics in normal rats
Format: in vivo, rat
run_parameters: female, CD, rat, plasma, po, 10 mg/kg, rat plasma, salt solution
Counter-ions that a name gives are not always drawn.
measured_attribute: MRT

> print(dat)
                                   compound  endpoint.value
1  CC(C)c1ccc2oc3nc(N)c(C(=O)O)cc3c(=O)c2c1 [Amlexanox (salt), sodium salt]          8.29 h

* * *

protocol_summary: Bioavailability and pharmacokinetics in normal rats
Assay type: in vivo, rat
run_parameters: female, CD, rat, plasma, po, 10 mg/kg, rat plasma, salt solution
Structures can show the parent of a compound that is named as a salt.
measured_attribute: AUC (ng·h/mL)

> print(dat)
                                   compound  measured.attribute  endpoint.value
1  CC(C)c1ccc2oc3nc(N)c(C(=O)O)cc3c(=O)c2c1 [Amlexanox (salt), sodium salt]                 AUC            1040

* * *

protocol_summary: Bioavailability and pharmacokinetics in normal rats
Assay type: in vivo, rat
run_parameters: female, CD, rat, plasma, po, 10 mg/kg, rat plasma, salt solution
Structures can show the parent of a compound that is named as a salt.
measured_attribute: half-life (h)

> print(dat)
                                   molecule  measured.attribute  output.unit  endpoint.value
1  CC(C)c1ccc2oc3nc(N)c(C(=O)O)cc3c(=O)c2c1 [Amlexanox (salt), sodium salt]           half-life            h            5.76

Just for reference, patent US7772255B2 is where these values come from.
